Target: recombinant soluble homotrimeric HA of A/chicken/Vietnam/NCVD-016/08 (H5N1) (Influenza A virus A/chicken/Vietnam/NCVD-016/2008(H5N1))
Test: HA microarray, BCC supernatant
Settings: remark: other sources report otherwise
MEASURE: Trimeric HA Binding: RLU (RLU)

binder="TCN-521 (3280_D18) (antibody, V domains shown) VH: EVQLVQSGGGLVQPGGSLRLACVVSGFTVTSNYITWVRQAPGKGLEWVSVIYSHGRAYYSASVNGRFTISRHTSKNTVYLEMNSLRPEDTAVYYCAGGGLVGGYDEYFFDYWGQGTLATVSS VL: ETVLTQSPGTLSLTPGERATLSCRVGQSVSGSHLAWYQQKPGQAPRLLIYGASSRATGIPDRFGGSVSGTDFTLTISRLEPEDSAVYYCQQYGDSRYTFGQGTKLEIK" unit_name=RLU measured=32400
binder="TCN-523 (5248_A17) (antibody, V domains shown) VH: QVQLVQSGAEVKKPGSSVKVSCKASGGSFSNYAFSWVRQAPGQGLEWMGGTIPLLGTTNYAQKFQGRVTISADQFTSTAYMELGSLRSEDTAVYYCTRRKMTTAFDSWGQGTLVTVSS VL: QPVLTQPPSASASLGASVTLTCTLSSAYSNYKVDWYQQRPGKGPRFVMRVGTGGIVGSKGDGIPDRFSVLGSGLNRYLTIKNIQEEDESDYHCGADHGSGSNFVSPYVFGGGTKLTVL" unit_name=RLU measured=48900
binder="TCN-537 (3194_D21) (antibody, V domains shown) VH: QVQLQQWGSGLLKPSETLSLTCAVYGGSFRDDYWTWIRQPPGKGLEWIGEINHSGRTNYNPSLKSRVTISVDTSLKQFSLKVISVTAADTAVYYCARGTSHVSRYFDWLPPTNWFDPWGQGTQVTVSS VL: DIVLTQSPGTLSLSPGERATLSCRASQSVSSSYLAWYQQKPGQAPRLVMYGAATRATGIPDRFSGSGSGPDFTLTISRLEPEDFAMYYCQQYGNSPITFGQGTRLEIK" unit_name=RLU measured=8620
